# TARGET SYSTEM: human CB1 receptor (Homo sapiens (Human))
# METHOD NOTES: Membrane competition binding assay with [3H]-CP 55,940, CHO-CB1 membranes
OBSERVED PROPERTY: Ki

*Q* # return recorded Ki for entry CCCCCCC(C)(C)c1cc(OC)c([C@@H]2C=C(CO)[C@@H]3C[C@H]2C3(C)C)c(OC)c1 [HU-308, reference compound]
*A* > 50 µM

====

# TARGET SYSTEM: human CB1 receptor (Homo sapiens (Human), UniProt P21554)
# Sequence (P21554 whole entry): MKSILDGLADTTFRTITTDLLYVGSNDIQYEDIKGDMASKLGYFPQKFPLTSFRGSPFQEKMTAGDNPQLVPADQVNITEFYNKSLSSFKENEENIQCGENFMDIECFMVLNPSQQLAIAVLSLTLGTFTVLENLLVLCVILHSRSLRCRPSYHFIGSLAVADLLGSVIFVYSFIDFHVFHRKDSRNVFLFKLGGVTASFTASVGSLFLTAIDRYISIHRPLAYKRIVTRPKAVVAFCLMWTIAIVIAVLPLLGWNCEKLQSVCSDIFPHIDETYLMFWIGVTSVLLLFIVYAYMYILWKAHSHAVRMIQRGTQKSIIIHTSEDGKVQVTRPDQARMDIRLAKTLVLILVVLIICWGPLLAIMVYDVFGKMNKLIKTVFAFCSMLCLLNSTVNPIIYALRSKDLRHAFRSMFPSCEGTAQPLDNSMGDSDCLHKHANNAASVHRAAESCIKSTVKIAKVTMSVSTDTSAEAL
# METHOD NOTES: Membrane competition binding assay with [3H]-CP 55,940, CHO-CB1 membranes
# ASSAY CONDITIONS: CHO-CB1 cellular membranes, 2.5 nM [3H]-CP 55,940; read-out: Competition Binding Assay CB1 Receptor Ki
# Experimental: The cDNA clones for human HA-tagged CB1 and CB2 receptors were obtained from the Missouri S&T cDNA Resource Center (www.cdna.org) in cloning vector pcDNA3.1+. […] Cells were grown to confluence and harvested in ice cold phosphate buffered saline with 5 mM EDTA. […] Protein concentration was determined using the Dc protein assay kit (BioRad, Hercules, Calif., USA). […] All data was analyzed using Prism 4.02. […]
pKi: −log10 of the molar value.
OBSERVED PROPERTY: pKi

*Q* Given the molecule CCCCCc1cc(OC)c(C2=C[C@@H]3CC[C@@]2(C(=O)O)C3(C)C)c(OC)c1 [HU-973] , write its reported pKi.
*A* < 4.30

Give pKi for each of the items listed below.
1. CCCCCCC(C)(C)c1cc(OC)c(C2=C[C@@H]3CC[C@@]2(CO)C3(C)C)c(OC)c1 [HU-909]
2. CCCCCc1cc(OC)c(C2C(O)[C@]3(C)CC[C@H]2C3(C)C)c(OC)c1 (stereo partly drawn) [HU-938]
3. CCCCCCC(C)(C)c1cc(OC)c(C2=C[C@H]3CC[C@]2(C)C3(C)C)c(OC)c1 [HU-907]
4. CCCCCc1cc(OC)c(C2=C[C@@H]3CC[C@@]2(CO)C3(C)C)c(OC)c1 [HU-969]
5. CCCCCCC(C)(C)c1cc(OC)c(C2=C[C@H]3CC[C@]2(C(=O)O)C3(C)C)c(OC)c1 [HU-914]

*A*
1: 4.93; 2: < 4.30; 3: < 4.30; 4: < 4.30; 5: < 4.30

State the recorded pKi for every item in the following list.
1. CCCCCCC(C)(C)c1cc(OC)c(C2C(=O)[C@]3(C)CC[C@H]2C3(C)C)c(OC)c1 (stereo partly drawn) [HU-926]
2. CCCCCCC(C)(C)c1cc(OC)c(C2=C[C@H]3CC[C@]2(CO)C3(C)C)c(OC)c1 [HU-910]

*A*
< 4.30
5.86

Give one value of pKi per listed molecule.
1. CCCCCCC(C)(C)c1cc(OC)c(C2=C[C@@H]3CC[C@@]2(C(=O)OC)C3(C)C)c(OC)c1 [HU-911]
2. CCCCCCC(C)(C)c1cc(OC)c(C2C(O)[C@]3(C)CC[C@H]2C3(C)C)c(OC)c1 (stereo partly drawn) [HU-928]

*A*
1: < 4.30; 2: < 4.30

Hi, could you look up pKi for each item in my list?
1. CCCCCc1cc(OC)c(C2=C[C@H]3CC[C@]2(CO)C3(C)C)c(OC)c1 [HU-970]
2. CCCCCc1cc(OC)c(C2=C[C@H]3CC[C@]2(C(=O)OC)C3(C)C)c(OC)c1 [HU-972]

*A*
< 4.30
< 4.30

These measurements were taken from patent US9365534B2.
